assay: Cytotoxicity against human HT1080 cells assessed as cell viability after 24 hrs by MTT assay; type: cell-based; conditions: HT-1080 cells
Please provide measured CC50 at 24 h for the entries that follow.
A number alone suffices; assume µM.

Q. // returns reported CC50 at 24 h for input O=C1NC(=O)C(c2ccc(Oc3ccccc3)cc2)(N2CCCC(CO[N+](=O)[O-])C2)C(=O)N1 (stereo not drawn)
A. 8.1

Q. Same read-out for O=C1NC(=O)C(c2ccc(Oc3ccccc3)cc2)(N2CCC(CCO)CC2)C(=O)N1 ?
A. 30.1

Q. Same read-out for CN(CCO)C1(c2ccc(Oc3ccccc3)cc2)C(=O)NC(=O)NC1=O ?
A. 78.5
